Biological target: T1, Nluc-IL23R fusion protein (human, UniProt Q5VWK5 22-629)
T1 construct: range 22-629; expressed with a secretion signal in HEK293 cells; used as crude membrane preparation; also called hIL-23R; human IL-23R; not shown: Nanoluc protein from the expression plasmid N1371 (Promega), N-terminal of IL-23R
T1 sequence (looked up): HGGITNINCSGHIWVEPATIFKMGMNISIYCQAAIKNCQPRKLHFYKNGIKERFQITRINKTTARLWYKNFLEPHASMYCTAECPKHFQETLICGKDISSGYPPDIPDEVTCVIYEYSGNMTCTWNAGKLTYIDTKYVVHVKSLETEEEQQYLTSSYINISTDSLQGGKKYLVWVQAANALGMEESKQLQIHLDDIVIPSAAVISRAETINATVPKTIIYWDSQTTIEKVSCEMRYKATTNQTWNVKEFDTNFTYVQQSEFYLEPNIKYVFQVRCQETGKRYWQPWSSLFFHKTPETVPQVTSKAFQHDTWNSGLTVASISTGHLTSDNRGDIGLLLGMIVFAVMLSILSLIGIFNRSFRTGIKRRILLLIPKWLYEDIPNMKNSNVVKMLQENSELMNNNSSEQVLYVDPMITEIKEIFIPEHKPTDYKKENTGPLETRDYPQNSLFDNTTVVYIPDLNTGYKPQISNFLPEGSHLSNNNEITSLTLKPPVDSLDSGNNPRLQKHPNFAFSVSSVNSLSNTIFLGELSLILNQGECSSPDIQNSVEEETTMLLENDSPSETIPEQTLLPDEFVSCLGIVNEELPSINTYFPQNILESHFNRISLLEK
Assay: BRET competition vs TAMRA-labelled peptide, Nluc-IL23R membranes
*1 amine or outer side, *2 acyl side, *3 side chain or, on linkers, in order; H or OH if unused. Bridges are numbered along the chain shown (N, C = ends). [ ]: non-standard residue; d: D form. 4‑Aminomethyl‑phenylacetyl = 4-aminomethyl-phenylacetyl unit, its amine closes the lactam, O=C(Cc1ccc(CN[*:1])cc1)[*:2]; αMeAla(3-pyridyl) = C[C@](N)(Cc1cccnc1)C(=O)O; 2Nal = N[C@@H](Cc1ccc2ccccc2c1)C(=O)O; AEF = NCCOc1ccc(C[C@H](N)C(=O)O)cc1; d3Pal = N[C@H](Cc1cccnc1)C(=O)O; αMeL = CC(C)C[C@](C)(N)C(=O)O; Dab = NCC[C@H](N)C(=O)O
Parameter: % displacement (hIL-23R binding). Scope: all listed entries.
Please state the figure in %; there is no need to write the unit.

[
  {
    "binder": "[4‑Aminomethyl‑phenylacetyl]SEWQ[Dab][AEF][2Nal][αMeL]E[Dab][dH]-NH2 (lactam N-10, 3-6; SMILES CC(C)C[C@]1(C)NC(=O)[C@H](Cc2ccc3ccccc3c2)NC(=O)[C@H](Cc2ccc(OCCN)cc2)NC(=O)[C@@H]2CCNC(=O)CC[C@H](NC(=O)[C@H](CO)NC(=O)Cc3ccc(cc3)CNC(=O)CC[C@@H](C(=O)N[C@@H](CCN)C(=O)N[C@H](Cc3c[nH]cn3)C(N)=O)NC1=O)C(=O)N[C@@H](Cc1c[nH]c3ccccc13)C(=O)N[C@@H](CCC(N)=O)C(=O)N2) [Compound 13]",
    "% displacement (hIL-23R binding) / %": 100
  }
]

So, [4‑Aminomethyl‑phenylacetyl]SEWQ[Dab][AEF][2Nal][αMeL]E[Dab][αMeAla(3-pyridyl)]-NH2 (lactam N-10, 3-6; SMILES CC(C)C[C@]1(C)NC(=O)[C@H](Cc2ccc3ccccc3c2)NC(=O)[C@H](Cc2ccc(OCCN)cc2)NC(=O)[C@@H]2CCNC(=O)CC[C@H](NC(=O)[C@H](CO)NC(=O)Cc3ccc(cc3)CNC(=O)CC[C@@H](C(=O)N[C@@H](CCN)C(=O)N[C@@](C)(Cc3cccnc3)C(N)=O)NC1=O)C(=O)N[C@@H](Cc1c[nH]c3ccccc13)C(=O)N[C@@H](CCC(N)=O)C(=O)N2) [Compound 3] ? Its % displacement (hIL-23R binding) was 99

So, [4‑Aminomethyl‑phenylacetyl]SEWQ[Dab][AEF][2Nal][αMeL]E[Dab][d3Pal]-NH2 (lactam N-10, 3-6) [Compound 5] ? Its % displacement (hIL-23R binding) was 99
